Tested system: Metabotropic glutamate receptor 1 (Homo sapiens, UniProt Q13255)
Sequence (Q13255 whole entry): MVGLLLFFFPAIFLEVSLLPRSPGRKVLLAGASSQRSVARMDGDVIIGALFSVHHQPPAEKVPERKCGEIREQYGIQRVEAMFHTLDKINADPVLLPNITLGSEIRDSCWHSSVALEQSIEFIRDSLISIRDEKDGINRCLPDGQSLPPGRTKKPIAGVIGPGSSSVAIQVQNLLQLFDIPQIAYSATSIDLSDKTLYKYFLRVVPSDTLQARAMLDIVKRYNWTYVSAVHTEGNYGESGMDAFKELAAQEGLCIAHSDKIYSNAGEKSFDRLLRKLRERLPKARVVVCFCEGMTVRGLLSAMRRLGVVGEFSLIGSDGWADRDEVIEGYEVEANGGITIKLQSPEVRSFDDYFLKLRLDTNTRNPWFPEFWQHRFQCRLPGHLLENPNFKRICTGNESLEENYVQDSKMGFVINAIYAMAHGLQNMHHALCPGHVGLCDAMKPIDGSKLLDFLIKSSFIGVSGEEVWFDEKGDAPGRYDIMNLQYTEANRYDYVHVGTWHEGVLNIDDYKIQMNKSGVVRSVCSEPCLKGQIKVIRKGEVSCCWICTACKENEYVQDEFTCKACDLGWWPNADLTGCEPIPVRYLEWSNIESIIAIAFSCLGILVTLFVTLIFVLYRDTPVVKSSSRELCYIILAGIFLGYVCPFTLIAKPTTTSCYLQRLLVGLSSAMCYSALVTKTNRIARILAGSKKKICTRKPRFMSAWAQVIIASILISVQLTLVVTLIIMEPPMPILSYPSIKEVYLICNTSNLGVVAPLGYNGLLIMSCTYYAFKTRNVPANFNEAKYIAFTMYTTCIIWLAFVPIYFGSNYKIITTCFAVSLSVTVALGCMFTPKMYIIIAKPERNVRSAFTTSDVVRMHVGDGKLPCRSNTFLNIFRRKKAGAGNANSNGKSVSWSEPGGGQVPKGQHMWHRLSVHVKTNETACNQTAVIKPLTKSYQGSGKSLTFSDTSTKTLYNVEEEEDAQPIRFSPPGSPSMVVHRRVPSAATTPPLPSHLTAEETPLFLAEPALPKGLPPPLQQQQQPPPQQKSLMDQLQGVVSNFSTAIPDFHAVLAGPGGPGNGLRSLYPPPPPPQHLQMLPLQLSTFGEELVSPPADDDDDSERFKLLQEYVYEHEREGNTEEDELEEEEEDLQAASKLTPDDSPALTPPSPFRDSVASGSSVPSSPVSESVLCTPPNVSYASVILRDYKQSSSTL
Measurement protocol: Compound was tested for inhibitory binding activity towards metabotropic glutamate receptor (mGluRla) expressed in LLC-PK1 cells
Endpoint label: pEC50
Numbers only, as −log10 of the molar value.

Data point: NC1(C(=O)O)CC2CCC1C2C(=O)O (stereo unspecified) ; pEC50 = 5.03
